Tested on: MLK1;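 also: KINOMEscan scanMAX binding as percent activity remaining versus control; lower means stronger binding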
Construct: gene MAP3K9
Conditions: Compound Concentration (nM):1000
Could you mark each record satisfied if its Percent Control falls strictly under 60%, and not satisfied if it equals or exceeds it?

Field: example entries. Status: answers known.
{"columns": ["compound", "classAssignment"],
 "data": [
  ["COc1ccc2[nH]c3c4[nH]c5ccc(OC)cc5c4c4c(c3c2c1)C(=O)NC4=O [GW296115X]", "satisfied"],
  ["Cl.O=C(Nc1ccc(Oc2ccc3[nH]c(NC(=O)c4ccco4)nc3c2)cc1)Nc1cc(C(F)(F)F)ccc1F [GW683134A]", "not satisfied"],
  ["Cl.O=S1CCN(Cc2ccc(-c3ccc4ncnc(Nc5ccc(OCc6ccccc6)c(F)c5)c4c3)o2)CC1 [GW576924A]", "not satisfied"],
  ["CCS(=O)(=O)c1ccc(OC)c(Nc2ncc(-c3cccc(F)c3)o2)c1 [GW621970X]", "not satisfied"],
  ["O=C(Nc1n[nH]c2nc(-c3ccc(O)cc3)c(Br)cc12)C1CC1 [SB-725317]", "not satisfied"]
]}

Consider the compound COc1cc2ncn(-c3cc(O[C@H](C)c4ccccc4Cl)c(C(N)=O)s3)c2cc1OC [GSK237701A] . Is its Percent Control strictly less than 60%?
not satisfied

In the record for COc1cc(C)c(N(C)C(=O)CN(C)C)cc1Nc1nc(Nc2cccc(F)c2C(N)=O)c2cc[nH]c2n1 [GSK2219385] , is Percent Control less than 60%?
satisfied

Check if Percent Control falls below 60% for COc1ccc(COc2ccc(Cc3cnc(N)nc3N)cc2OC)cc1 [GW632580X] .
not satisfied
